Test system: MDA-MB-468 breast
Assay: NCI-60 one-dose screen, 48 h (100 = growth as untreated, 0 = no growth, -100 = all killed)
Conditions: 10 µM unless noted
About 83,000 compounds went through this panel and 20% of them were active in at least one assay; those are over-represented in the sample as a whole. The source made the active and inactive calls. Rule for the calls: active = growth percent below 10; inactive = the rest.
Overview of reported growth across a group of compounds:

- Mol: "COc1cc(/C=C/C(=O)/C=C/c2cc(OC)c3c(c2)OCO3)cc2c1OCO2"
  growth: "76.2% (inactive)"
- Mol: "O=C(CSc1nc2c(n1Nc1ccccc1)-c1ccccc1SC2)Nc1nc(-c2ccc(Cl)cc2)cs1"
  growth: "59.1% (inactive)"
- Mol: "CN(C)CCCN(CCC1CCCCC1)CCC1CCCCC1"
  growth: "-35.4% (active)"
- Mol: "CCCCCCOc1ccc(C2(Cl)c3ccccc3N(C)c3ccccc32)cc1"
  growth: "50.3% (inactive)"
- Mol: "CC(=O)c1cccc(N(C)S(=O)(=O)c2ccc(C)cc2)c1"
  growth: "111% (inactive)"
